Experiment: Pharmacokinetic measurements in rats, intra-tracheal dosing
Format: in vivo
Conditions: male, CD, rat, lung, other: intra-tracheal; read-out: lung concentration (nM) at time 24 h
quantity measured: concentration at 24 h (nM)

(P) COC(=O)c1cc2c(cc1C)/C(=C(/Nc1ccc(C(=O)NCCN3CCCN(C)CC3)cc1)c1ccccc1)C(=O)N2
(Q) COC(=O)c1cc2c(cc1C)/C(=C(/Nc1ccc(C(=O)NCCN3CCC(N(C)C)CC3)cc1)c1ccccc1)C(=O)N2
(R) COC(=O)c1cc2c(cc1C)/C(=C(/Nc1ccc(C(=O)NCC(=O)N3CCN(CCO)CC3)cc1)c1ccccc1)C(=O)N2
Query block: Sort ascending by concentration at 24 h. Rank them, then answer with their labels in that order.
Result block: R, P, Q
(R: 27 nM, P: 1670 nM, Q: 6440 nM)

----------
Assay: Pharmacokinetic measurements in rats, intra-tracheal dosing
Format: in vivo
Settings: rat, i.t. versus i.v., 1.5 h
quantity measured: Lung conc i.t./i.v. Ratio at time 1.5 h

COC(=O)c1cc2c(cc1C)/C(=C(/Nc1ccc(C(=O)NCCN3CCC(N(C)C)CC3)cc1)c1ccccc1)C(=O)N2 ... 8.0

(I) COC(=O)c1cc2c(cc1C)/C(=C(/Nc1ccc(C(=O)NCC3CCN(C)CC3)cc1)c1ccccc1)C(=O)N2
(II) COC(=O)c1cc2c(cc1C)/C(=C(/Nc1ccc(C(=O)NCCN3CCNC(=O)C3)cc1)c1ccccc1)C(=O)N2
(III) COC(=O)c1cc2c(cc1C)/C(=C(/Nc1ccc(C(=O)NCCN3CCCN(C)CC3)cc1)c1ccccc1)C(=O)N2
Query block: Arrange the 3 entries by Lung conc i.t./i.v. Ratio at time 1.5 h so the values rise. Rank them, then answer with their labels in that order.
Result block: I, III, II
(I: 7, III: 12, II: 51)

----------
Each entry below lists one item and its recorded Kp at 24 h value.
Experiment: Pharmacokinetic measurements in rats, intra-tracheal dosing
Assay type: in vivo
Conditions: male, CD, rat, lung/plasma, other: intra-tracheal; read-out: lung/plasma conc ratio at time 24 h

Please review the following examples before continuing.
COC(=O)c1cc2c(cc1C)/C(=C(/Nc1ccc(C(=O)NCCN3CCC(N(C)C)CC3)cc1)c1ccccc1)C(=O)N2 ... > 3790
COC(=O)c1cc2c(cc1C)/C(=C(/Nc1ccc(C(=O)NCC(=O)N3CCN(CCO)CC3)cc1)c1ccccc1)C(=O)N2 ... > 8

Now consider a different compound.
Query block: Given COC(=O)c1cc2c(cc1C)/C(=C(/Nc1ccc(C(=O)NCCN3CCCN(C)CC3)cc1)c1ccccc1)C(=O)N2 , state its recorded Kp at 24 h.
Result block: > 951

----------
Test: Pharmacokinetic measurements in rats, intravenous dosing
Assay type: in vivo
Details: male, CD, rat, lung/plasma, iv; read-out: lung/plasma ratio at time 0.1 h
quantity measured: Kp at 0.1 h

(P) COC(=O)c1cc2c(cc1C)/C(=C(/Nc1ccc(C(=O)NCCN3CCCN(C)CC3)cc1)c1ccccc1)C(=O)N2 [Example 5]
(Q) COC(=O)c1cc2c(cc1C)/C(=C(/Nc1ccc(C(=O)NCCN3CCC(N(C)C)CC3)cc1)c1ccccc1)C(=O)N2 [Example 6]
Query block: Identify the item whose Kp at 0.1 h is the smaller number: P or Q Write the label of whichever entry you select.
Result block: Q

Cited source: patent US11208381B2
